- System: UO-31
- ASSAY_NOTES: NCI tumour cell line growth inhibition, 48 h
Activity calls are given as the source filed them. No stated cut-off is given here; in the data, active = GI50 up to about 1.1 µM and inactive = higher.
REPORTED_METRIC: GI50

For orientation, consider the following solved cases.
substance_smiles=COC(=O)c1sc(C(=O)OC)c2c1C[S+]([O-])C2 test_system=UO-31 reported_metric=GI50 recorded_measurement="> 100 µM (inactive)"
substance_smiles=C[C@@H]1C(=O)C[C@H]2C(C)(C)CCC[C@]2(C)[C@@]1(O)CCc1ccoc1 test_system=UO-31 reported_metric=GI50 recorded_measurement="55.1 µM (inactive)"

I have this compound here, `CCOC(=O)/C(=N/Nc1ccc(C)cc1)N1C(=S)N(C)N=C(C)C=C1S` , and I need its recorded GI50.
> 100 µM (inactive)

###

- Tested on: EKVX
- ASSAY_NOTES: NCI tumour cell line growth inhibition, 48 h
The source made the active and inactive calls. No stated cut-off is given here; in the data, active = GI50 up to about 1.1 µM and inactive = higher.
Known GI50 of a selection of compounds

For orientation, consider the following solved cases.
compound=C/C(=C1/N=C(c2ccccc2)OC1=O)c1ccc(C)cc1 test_system=EKVX reported_metric=GI50 recorded_measurement="> 100 µM (inactive)"
compound=COc1ccc2nccc(SCC(=O)O)c2c1 test_system=EKVX reported_metric=GI50 recorded_measurement="> 100 µM (inactive)"
compound=O=[N+]([O-])c1ccc(Cl)c2c([N+](=O)[O-])cccc12 test_system=EKVX reported_metric=GI50 recorded_measurement="> 10 µM (inactive)"

# get_value(readout= GI50, system= EKVX) for `Cc1ccc(C)c(COCCOCn2cc(N3CCOCC3)c(=O)[nH]c2=O)c1`
> 100 µM (inactive)

# get_value(readout= GI50, system= EKVX) for COc1cc2c(cc1OC)C1Cc3sccc3CN1CC2 (stereo not given)
> 100 µM (inactive)

###

- Test system: DMS-114
- ASSAY_NOTES: NCI tumour cell line growth inhibition, 48 h
Activity calls are given as the source filed them. Cut-off read from the data, not from the text of the source: active = GI50 up to about 1.1 µM and inactive = higher.
Known GI50 of a selection of compounds

compound="CC1CCC2(C(=O)O)CCC3(C)C(=CCC4C5(C)CCC(O)C(C)(C)C5CCC43C)C2C1C (stereo not drawn)" reported_metric=GI50 recorded_measurement="9.42 µM (inactive)"
compound="Cc1[nH]c(=O)[nH]c(=O)c1/C=C/C(=O)NC(CO)C[S+]([O-])Cc1ccccc1 (stereo not drawn)" reported_metric=GI50 recorded_measurement="> 300 µM (inactive)"
compound=CCOC(=O)C(=O)Nc1c(C)cccc1CC reported_metric=GI50 recorded_measurement="> 100 µM (inactive)"
compound="NC(=O)CCC(N=C(N)c1csc(C2OC(CO)C(O)C2O)n1)C(=O)O (stereo not drawn)" reported_metric=GI50 recorded_measurement="> 100 µM (inactive)"
compound="CC1=C2C(O)C(C(C)C(=O)NCC(C)C)CCC2(C)C=CC1=O (stereo not drawn)" reported_metric=GI50 recorded_measurement="> 100 µM (inactive)"

I have this compound here, `COc1nc(N)c(C(=O)CCl)c(=O)n1C` , and I need its recorded GI50.
16.8 µM (inactive)

###

- System: MOLT-4
- ASSAY_NOTES: NCI tumour cell line growth inhibition, 48 h
Calls of active or inactive are those of the source. Cut-off read from the data, not from the text of the source: active = GI50 up to about 1.1 µM and inactive = higher.
REPORTED_METRIC: GI50

For orientation, consider the following solved cases.
compound="Cc1ccc(S(=O)(=O)C(C#N)c2nc3ccccc3nc2-n2ccnc2)cc1 (stereo not drawn)" recorded_measurement="> 100 µM (inactive)"
compound="CC(=O)[C@]1(O)Cc2c(O)c3c(c(O)c2[C@@H](OC2CC(N)C(O)C(C)O2)C1)C(=O)c1c(OCc2ccccc2)cccc1C3=O (stereo partly drawn)" recorded_measurement="0.0741 µM (active)"

I have this compound here, C#CC(O)/C=C/C(O)CCCC(O)CC#CC(O)C#CCCCCC(O)/C=C/CCCC(=O)CCCCCCCCCCCCCCCC(O)C(O)C#CC(=O)O (stereo not drawn) , and I need its recorded GI50.
> 25 µM (inactive)

###

Known GI50 of a selection of molecules
- Test system: SK-MEL-28
- ASSAY_NOTES: NCI tumour cell line growth inhibition, 48 h
Activity calls are given as the source filed them. Cut-off read from the data, not from the text of the source: active = GI50 up to about 1.1 µM and inactive = higher.

For orientation, consider the following solved cases.
molecule="CCSC12OC3(CCCCCN3C1=O)C1C(=O)N(c3ccccc3)C(=O)C12 (stereo not drawn)" test_system=SK-MEL-28 reported_metric=GI50 recorded_measurement="> 100 µM (inactive)"
molecule=C[C@H]1CC[C@]2(NC1)O[C@H]1C[C@H]3[C@@H]4CC[C@H]5C[C@@H](O[C@@H]6O[C@H](CO)[C@H](O[C@@H]7O[C@H](CO)[C@@H](O)[C@H](O[C@@H]8OC[C@@H](O)[C@H](O)[C@H]8O)[C@H]7O[C@@H]7O[C@H](CO)[C@@H](O)[C@H](O)[C@H]7O)[C@H](O)[C@H]6O)CC[C@]5(C)[C@H]4CC[C@]3(C)[C@H]1[C@@H]2C test_system=SK-MEL-28 reported_metric=GI50 recorded_measurement="1.26 µM (inactive)"

Now for another entry.
I have this molecule here, `O=c1cccccc1NCCOCCNc1cccccc1=O` , and I need its recorded GI50.
> 100 µM (inactive)

###

- System: RPMI-8226
- ASSAY_NOTES: NCI tumour cell line growth inhibition, 48 h
Calls of active or inactive are those of the source. Cut-off read from the data, not from the text of the source: active = GI50 up to about 1.1 µM and inactive = higher.
REPORTED_METRIC: GI50

compound="O=C(O)CN(CC(=O)O)C1CCCCC1N(CC(=O)O)CC(=O)NCCN=C=S (centres undefined)" reported_metric=GI50 recorded_measurement="> 100 µM (inactive)"
compound="Cc1cn(C2CC(n3cc(Cn4cc(Br)c(=O)[nH]c4=O)nn3)C(CO)O2)c(=O)[nH]c1=O (centres undefined)" reported_metric=GI50 recorded_measurement="52.6 µM (inactive)"

# get_value(readout= GI50, system= RPMI-8226) for `CCn1c(-c2ccc(/N=N/Nc3ccc(-c4n[nH]c(=S)n4CC)cc3)cc2)n[nH]c1=S`
1.92 µM (inactive)

# get_value(readout= GI50, system= RPMI-8226) for `O=c1[nH]nc(Cc2ccccc2)n1-n1cnnc1`
> 100 µM (inactive)

###

- Test system: SN12C
- ASSAY_NOTES: NCI tumour cell line growth inhibition, 48 h
Calls of active or inactive are those of the source. No stated cut-off is given here; in the data, active = GI50 up to about 1.1 µM and inactive = higher.
REPORTED_METRIC: GI50

For orientation, consider the following solved cases.
molecule="CC(C)(C)OC(=O)NCCCCC1NC(=O)[C@@H]2Cc3c([nH]c4ccccc34)C(c3ccccc3)N2C1=O (stereo not given in full)" reported_metric=GI50 recorded_measurement="28.8 µM (inactive)"
molecule="CC(C)CC(N)C(=O)Nc1ccc2ccccc2c1 (stereo not given)" reported_metric=GI50 recorded_measurement="> 100 µM (inactive)"
molecule=Nc1nc2c(c(-c3cccc(Cl)c3)n1)COC/C2=C\c1cccc(Cl)c1 reported_metric=GI50 recorded_measurement="> 100 µM (inactive)"
molecule=COC(=O)c1cc2c(o1)Sc1ccccc1NC2=O reported_metric=GI50 recorded_measurement="> 100 µM (inactive)"

I have this molecule here, `Sc1nnc(-c2ccccc2Nc2ccccc2-c2nnc(S)n2-c2ccccc2)n1-c1ccccc1` , and I need its recorded GI50.
26.5 µM (inactive)

###

- System: NCI-H226
- ASSAY_NOTES: NCI tumour cell line growth inhibition, 48 h
Activity calls are given as the source filed them. Cut-off read from the data, not from the text of the source: active = GI50 up to about 1.1 µM and inactive = higher.
Assign a class; possible classes are True = active, False = inactive

Take a look at these entries with their results.
molecule="CSc1ccc(C2C(Cl)C(=O)N2NC(=O)c2c(Cl)c(Cl)c(Cl)c(Cl)c2-c2nc3ccccc3[nH]2)cc1 (configuration not stated)" answer_label=False
molecule=CC(C)(C)OC(=O)CN1CCNCCN(CC(=O)OC(C)(C)C)CC1 answer_label=False
molecule=CC1(C)CC(=O)C(=CNC(N)=S)C(=O)C1 answer_label=False
molecule=O=C(/C=C/c1ccc2ccccc2c1)NCc1ccc(C(=O)NCc2ccccc2)cc1 answer_label=False
molecule="NC1(C(=O)O)CCC(C(=O)O)CC1 (configuration not stated)" answer_label=False

# evaluate next
// outcome(item) with item = `CCOC(=O)C(=O)Nc1c(C)cccc1CC`
False

###

- System: SNB-19
- ASSAY_NOTES: NCI tumour cell line growth inhibition, 48 h
Activity calls are given as the source filed them. Cut-off read from the data, not from the text of the source: active = GI50 up to about 1.1 µM and inactive = higher.
Assign a class; possible classes are active, inactive

compound=COC(=O)c1cc(C)n(CN(Cc2ccccc2)Cn2nc(C(=O)OC)cc2C)n1 answer_label=inactive
compound="C#CC(O)/C=C/C(O)CCCC(O)CC#CC(O)C#CCCCCC(O)/C=C/CCCC(=O)CCCCCCCCCCCCCCCC(O)C(O)C#CC(=O)O (configuration not stated)" answer_label=inactive
compound=COc1ccccc1NC(=O)CSC(N)=O answer_label=inactive
compound="CCOC(=O)C(NC(=O)CC(C)C)(Nc1ccc(S(=O)(=O)Nc2nc(C)cc(C)n2)cc1)C(F)(F)F (configuration not stated)" answer_label=inactive
compound="COc1cccc(NC(=O)CC(=O)N2N=C(C)C(/N=N/c3ccc(S(=O)(=O)CCOS(=O)(=O)O)cc3)C2=O)c1 (configuration not stated)" answer_label=inactive

// outcome(item) with item = CN(C)CCNC(=O)c1cccc2c(NC(CCCNC(=N)N)C(=O)O)c3ccccc3nc12 (configuration not stated)
inactive

// outcome(item) with item = `COc1ccc2nccc(SCC(=O)O)c2c1`
inactive

// outcome(item) with item = `CC(C)(C)C1=CC(=CC=C2C=CN(CCCCCCCCCCCO)C=C2)C=C(C(C)(C)C)C1=O`
inactive

// outcome(item) with item = CC1CCC2(C(=O)O)CCC3(C)C(=CCC4C5(C)CCC(O)C(C)(C)C5CCC43C)C2C1C (configuration not stated)
inactive

// outcome(item) with item = COc1cc(/C=C/C=C2\CC(C)C/C(=C\C=C\c3ccc(O)c(OC)c3)C2=O)ccc1O (configuration not stated)
inactive
